# targetSystem: Tyrosine-protein kinase ABL1 (Homo sapiens, UniProt P00519)
# Sequence (P00519 whole entry, looked up): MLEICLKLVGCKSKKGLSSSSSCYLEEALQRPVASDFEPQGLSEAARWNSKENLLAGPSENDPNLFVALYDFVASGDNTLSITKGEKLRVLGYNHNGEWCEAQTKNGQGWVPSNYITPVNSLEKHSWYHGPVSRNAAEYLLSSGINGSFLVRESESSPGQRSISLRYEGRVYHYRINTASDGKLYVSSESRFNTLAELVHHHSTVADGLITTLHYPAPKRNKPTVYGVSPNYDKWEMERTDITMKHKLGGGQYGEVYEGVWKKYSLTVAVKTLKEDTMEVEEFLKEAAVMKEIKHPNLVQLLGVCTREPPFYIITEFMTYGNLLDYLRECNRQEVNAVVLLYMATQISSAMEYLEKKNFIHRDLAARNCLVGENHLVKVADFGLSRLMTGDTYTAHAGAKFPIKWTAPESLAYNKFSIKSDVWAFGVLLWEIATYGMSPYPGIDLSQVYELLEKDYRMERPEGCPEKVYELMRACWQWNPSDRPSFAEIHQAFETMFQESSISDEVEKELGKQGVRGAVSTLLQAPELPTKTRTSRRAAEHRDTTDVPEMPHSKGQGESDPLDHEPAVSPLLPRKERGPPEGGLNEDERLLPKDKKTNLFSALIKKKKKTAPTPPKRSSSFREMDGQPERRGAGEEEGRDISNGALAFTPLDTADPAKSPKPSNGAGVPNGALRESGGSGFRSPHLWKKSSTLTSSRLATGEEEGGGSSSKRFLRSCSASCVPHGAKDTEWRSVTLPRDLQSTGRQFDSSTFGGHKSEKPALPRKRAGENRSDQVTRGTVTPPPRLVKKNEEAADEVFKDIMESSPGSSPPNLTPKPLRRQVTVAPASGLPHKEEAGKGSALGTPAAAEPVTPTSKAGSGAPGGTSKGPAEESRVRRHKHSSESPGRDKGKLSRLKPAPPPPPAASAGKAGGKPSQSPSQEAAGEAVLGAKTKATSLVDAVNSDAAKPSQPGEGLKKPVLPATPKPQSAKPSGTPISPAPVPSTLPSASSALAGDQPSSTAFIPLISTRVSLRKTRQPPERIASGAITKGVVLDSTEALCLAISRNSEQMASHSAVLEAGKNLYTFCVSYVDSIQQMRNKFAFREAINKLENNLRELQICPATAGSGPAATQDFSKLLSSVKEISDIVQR
measure: IC50 (µM)
Your answer is read as µM, so omit the unit and give the number.

Below: 6 molecules and their reported IC50.
> print(dat)
                                smilesinput                              targetsystem  displayunit  recordedresult
1  Oc1ccc(Nc2[nH]nc3ncnc(Nc4cccc(Cl)c4)c23)cc1  Tyrosine-protein kinase ABL1 (Homo sapiens, UniProt P00519)           µM            0.15
2  Nc1ccc(-c2[nH]nc3ncnc(Nc4cccc(Cl)c4)c23)cc1  Tyrosine-protein kinase ABL1 (Homo sapiens, UniProt P00519)           µM             3.6
3  COc1cccc(Nc2[nH]nc3ncnc(Nc4cccc(Cl)c4)c23)c1  Tyrosine-protein kinase ABL1 (Homo sapiens, UniProt P00519)           µM             3.4
4       Nc1nc(N)c2c(Nc3cccc(Cl)c3)[nH]nc2n1  Tyrosine-protein kinase ABL1 (Homo sapiens, UniProt P00519)           µM            0.41
5  Clc1cccc(Nc2ncnc3n[nH]c(Nc4cccc(Cl)c4)c23)c1  Tyrosine-protein kinase ABL1 (Homo sapiens, UniProt P00519)           µM            1.98
6  Clc1cccc(Nc2[nH]cnc3nnc(NCc4ccccc4)c2-3)c1  Tyrosine-protein kinase ABL1 (Homo sapiens, UniProt P00519)           µM             6.6

What reported IC50 corresponds to `Nc1ccc(Nc2[nH]nc3ncnc(Nc4cccc(Cl)c4)c23)cc1` on Tyrosine-protein kinase ABL1 (Homo sapiens, UniProt P00519)?
1.18

What reported IC50 corresponds to `Nc1cccc(-c2[nH]nc3ncnc(Nc4cccc(Cl)c4)c23)c1` on Tyrosine-protein kinase ABL1 (Homo sapiens, UniProt P00519)?
3.09

What reported IC50 corresponds to `Nc1[nH]cnc2nnc(Nc3cccc(Cl)c3)c1-2` on Tyrosine-protein kinase ABL1 (Homo sapiens, UniProt P00519)?
0.41
